Parameter IC50: see the listing below.
Target: UniProt P01116
Sequence (P01116 with tags, fused parts or gaps isoform P01116-2): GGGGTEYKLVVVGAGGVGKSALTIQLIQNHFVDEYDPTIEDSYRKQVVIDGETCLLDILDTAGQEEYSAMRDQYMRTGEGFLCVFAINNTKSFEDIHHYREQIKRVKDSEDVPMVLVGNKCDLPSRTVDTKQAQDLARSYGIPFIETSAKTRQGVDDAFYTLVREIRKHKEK
Test: SOS-catalyzed nucleotide exchange assay (Procedure A, TR-FRET), KRAS-WT
Type: biochemical
Conditions: nucleotide exchange, read-out: KRAS WT GNE IC50
property: IC50 (µM)

* C[C@@]1(O)COCCN(c2nc(OC[C@]3(CN4CCOC5(CC5)C4)CC3(F)F)nc3sc4c(-c5c(C6(F)CC6)c(Cl)cc6[nH]ncc56)nccc4c23)C1 | 0.351
* C[C@@]1(O)COCCN(c2nc(OC[C@]3(CN4C[C@H]5CCO[C@H]5C4)CC3(F)F)nc3sc4c(-c5c(C6(F)CC6)c(Cl)cc6[nH]ncc56)nccc4c23)C1 | 0.0597
* C[C@@]1(O)COCCN(c2nc(OC[C@]3(CN4CC5CC4(CF)C5)CC3(F)F)nc3sc4c(-c5c(C6(F)CC6)c(Cl)cc6[nH]ncc56)nccc4c23)C1 | 0.0797

Hey, just so you know, these numbers are from patent US20260176289A1.
